Test system: HCI-024 (organoid from a breast cancer xenograft)
test method notes: CTG-3D luminescence at 96 h relative to day-0 seeding control (ratio to day 0); higher = more growth / less cytotoxicity; PDxO 3D drug screen (set 2), 96 h, CTG-3D normalised to day-0 seeding control.
experimental parameters: 0.00025 µM; days in culture: 254
Measured CTG-3D luminescence at 96 h, listed per entry for reference.
experimental endpoint: CTG-3D luminescence at 96 h

compound	experimental endpoint	measured
COc1cccc2c1C(=O)c1c(O)c3c(c(O)c1C2=O)C[C@@](O)(C(=O)CO)C[C@@H]3O[C@H]1C[C@H](N)[C@@H](O)[C@H](C)O1 [epirubicin]	CTG-3D luminescence at 96 h	2
CC(=O)c1c(C)c2cnc(Nc3ccc(N4CCNCC4)cn3)nc2n(C2CCCC2)c1=O	CTG-3D luminescence at 96 h	1.36
CO[C@H]1C[C@@H]2CC[C@@H](C)[C@@](O)(O2)C(=O)C(=O)N2CCCC[C@H]2C(=O)O[C@H]([C@H](C)C[C@@H]2CC[C@@H](OCCO)[C@H](OC)C2)CC(=O)[C@H](C)/C=C(\C)[C@@H](O)[C@@H](OC)C(=O)[C@H](C)C[C@H](C)/C=C/C=C/C=C/1C	CTG-3D luminescence at 96 h	0.836
CC(=O)O[C@@]12CO[C@@H]1C[C@H](O)[C@@]1(C)C(=O)[C@H](O)C3=C(C)[C@@H](OC(=O)[C@H](O)[C@@H](NC(=O)OC(C)(C)C)c4ccccc4)C[C@@](O)([C@@H](OC(=O)c4ccccc4)[C@H]21)C3(C)C	CTG-3D luminescence at 96 h	1.02
C[C@@H](Nc1cc(F)cc(F)c1)c1cc(C(=O)N(C)C)cc2c(=O)cc(N3CCOCC3)oc12	CTG-3D luminescence at 96 h	1.68
CC(C)n1nc(-c2ccc3oc(N)nc3c2)c2c(N)ncnc21	CTG-3D luminescence at 96 h	1.09

###

System: HCI-025 (organoid from a breast cancer xenograft)
test method notes: CTG-3D luminescence at 96 h relative to day-0 seeding control (ratio to day 0); higher = more growth / less cytotoxicity; PDxO 3D drug screen, 96 h, CTG-3D normalised to day-0 seeding control.
experimental parameters: 0.1 µM; days in culture: 218
experimental endpoint: CTG-3D luminescence at 96 h

molecule	experimental endpoint	measured
O=C(/C=C/c1cccnc1)NCCCCC1CCN(C(=O)c2ccccc2)CC1	CTG-3D luminescence at 96 h	0.031
CCc1c2c(nc3ccc(O)cc13)-c1cc3c(c(=O)n1C2)COC(=O)[C@]3(O)CC	CTG-3D luminescence at 96 h	0.244
C=CC(=O)N1CCC[C@@H](n2nc(-c3ccc(Oc4ccccc4)cc3)c3c(N)ncnc32)C1	CTG-3D luminescence at 96 h	1.68
C[C@]12CC[C@@H]3c4ccc(O)cc4C[C@@H](CCCCCCCCC[S+]([O-])CCCC(F)(F)C(F)(F)F)[C@H]3[C@@H]1CC[C@@H]2O (stereo partly drawn)	CTG-3D luminescence at 96 h	1.54
C[C@@H]1COCCN1c1cc(C2([S@](C)(=N)=O)CC2)nc(-c2cc[nH]c3nccc2-3)n1	CTG-3D luminescence at 96 h	1.64
Cc1cc(Nc2ncnc3ccc(NC4=NC(C)(C)CO4)cc23)ccc1Oc1ccn2ncnc2c1	CTG-3D luminescence at 96 h	1.43
CN(Cc1cnc2nc(N)nc(N)c2n1)c1ccc(C(=O)N[C@@H](CCC(=O)O)C(=O)O)cc1 [methotrexate]	CTG-3D luminescence at 96 h	1.06
NC(=O)c1cccc2cn(-c3ccc([C@@H]4CCCNC4)cc3)nc12	CTG-3D luminescence at 96 h	1.83
